Target: PDZRN4_2, Q6ZMN7
Sequence (Q6ZMN7 389-498): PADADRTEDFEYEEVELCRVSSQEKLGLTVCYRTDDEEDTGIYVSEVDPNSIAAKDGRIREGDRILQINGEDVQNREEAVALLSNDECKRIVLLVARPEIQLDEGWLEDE
Assay: holdup assay
Parameters: key: below the threshold = too weak to quantify, mostly under pKd 3.1 to 4
Conditions: plain residues with an end cap or a label only (N-terminal biotin on a linker: ttds)

Binder: RPLPRKVSQL [DOCK4, Q8N1I0]
pKd: 4.14
//
Binder: RLPKIKETTV [FRMPD4, Q14CM0]
pKd: 4.43
//
Binder: SSLQSLETSV [ATP2B4, P23634]
pKd: 4.24
//
Binder: RHTTSTETAV [HPV30-E6, P36809]
pKd: 4.48
